# target_entity: D(1A) dopamine receptor (Homo sapiens, UniProt P21728); further: assay procedure not described here
# Sequence (P21728 whole entry): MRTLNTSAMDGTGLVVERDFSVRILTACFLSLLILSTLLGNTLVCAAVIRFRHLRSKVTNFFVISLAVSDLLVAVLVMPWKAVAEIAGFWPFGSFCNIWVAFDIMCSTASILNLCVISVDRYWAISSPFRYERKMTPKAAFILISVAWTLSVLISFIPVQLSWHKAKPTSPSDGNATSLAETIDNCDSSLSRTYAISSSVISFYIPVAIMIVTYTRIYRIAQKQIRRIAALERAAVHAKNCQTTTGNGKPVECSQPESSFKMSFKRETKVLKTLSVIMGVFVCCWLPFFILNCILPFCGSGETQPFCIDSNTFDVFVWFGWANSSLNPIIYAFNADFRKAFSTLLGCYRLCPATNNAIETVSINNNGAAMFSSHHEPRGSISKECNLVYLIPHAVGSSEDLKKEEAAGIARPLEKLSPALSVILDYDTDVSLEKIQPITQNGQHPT
readout_label: AC50

{"molecule": "CC(N)Cc1ccc(O)cc1 (stereo not given) [HYDROXYAMPHETAMINE]", "measured_result": "> 30 µM"}
{"molecule": "Cc1onc(-c2ccccc2)c1-c1ccc(S(N)(=O)=O)cc1 [VALDECOXIB]", "measured_result": "> 30 µM"}
{"molecule": "CCOC(=O)C1=C[C@@H](OC(CC)CC)[C@H](NC(C)=O)[C@@H](N)C1 [OSELTAMIVIR]", "measured_result": "> 30 µM"}
{"molecule": "COc1cc2nc(N3CCN(C(=O)C4CCCO4)CC3)nc(N)c2cc1OC (stereo not given) [TERAZOSIN]", "measured_result": "27.8 µM"}
{"molecule": "CC(C)N(CCNC(=O)CN1CCCC1=O)C(C)C", "measured_result": "> 30 µM"}
{"molecule": "CCOC(=O)c1c(C)cc2c(CO)n[nH]c(=O)c2c1C [OXAGRELATE]", "measured_result": "> 30 µM"}
{"molecule": "OC[C@H]1O[C@@H](c2ccc(F)c(Cc3cc4ccccc4s3)c2)[C@H](O)[C@@H](O)[C@@H]1O [IPRAGLIFLOZIN]", "measured_result": "> 30 µM"}
{"molecule": "C[C@H](Cc1cc2c(c(C(N)=O)c1)N(CCCO)CC2)NCCOc1ccccc1OCC(F)(F)F [SILODOSIN]", "measured_result": "10.8 µM"}
{"molecule": "Cc1c(N(C)CS(=O)(=O)O)c(=O)n(-c2ccccc2)n1C [METAMIZOLE]", "measured_result": "> 30 µM"}
{"molecule": "CNC(=O)Oc1cccc2ccccc12 [CARBARIL]", "measured_result": "> 30 µM"}
{"molecule": "COc1cc2c(cc1OC)CC(=O)N(CCCN(C)C[C@H]1Cc3cc(OC)c(OC)cc31)CC2 [IVABRADINE]", "measured_result": "> 30 µM"}
{"molecule": "C=CCSCC1Nc2cc(Cl)c(S(N)(=O)=O)cc2S(=O)(=O)N1 (stereo not given) [ALTHIAZIDE]", "measured_result": "> 30 µM"}
{"molecule": "CCN(CCCc1ccccc1)CCCc1ccccc1 [ALVERINE]", "measured_result": "3.72 µM"}
{"molecule": "Cc1cc(N)c2ccccc2[n+]1CCCCCCCCCC[n+]1c(C)cc(N)c2ccccc21", "measured_result": "1.04 µM"}
{"molecule": "OC[C@H]1O[C@@H](c2ccc(Cl)c(Cc3ccc(O[C@H]4CCOC4)cc3)c2)[C@H](O)[C@@H](O)[C@@H]1O [EMPAGLIFLOZIN]", "measured_result": "> 30 µM"}
{"molecule": "CCCN(CCC)C(=O)Cc1c(-c2ccc(Cl)cc2)nc2ccc(Cl)cn12 [ALPIDEM]", "measured_result": "> 30 µM"}
{"molecule": "CC[C@@]1(O)C(=O)OCc2c1cc1n(c2=O)Cc2cc3c([N+](=O)[O-])cccc3nc2-1 [RUBITECAN]", "measured_result": "> 30 µM"}
{"molecule": "CC(C)OC(=O)CCC/C=C\\C[C@@H]1[C@@H](/C=C/C(F)(F)COc2ccccc2)[C@H](O)C[C@@H]1O [TAFLUPROST]", "measured_result": "> 30 µM"}
{"molecule": "CC1=CCC(C(C)(C)O)CC1O (stereo not given) [SOBREROL]", "measured_result": "> 30 µM"}
{"molecule": "CC(CCc1ccccc1)NCC(O)c1ccc(O)c(C(N)=O)c1 (stereo not given) [LABETALOL]", "measured_result": "> 30 µM"}
